B1: FANCE (parent)
chain: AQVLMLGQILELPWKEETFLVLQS

Variants of: B1
Assay: protein stability index of a GFP-peptide fusion (GPS, HEK-293T) (PSI 1-6); higher = more stable;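 further: lentivirally expressed fusions sorted by FACS into six bins by GFP to DsRed ratio, PSI derived from sequencing read proportions per bin multiplied by bin number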
Conditions: c terminus: a fixed tail appended
Values of protein stability index greater than or equal to 2 map to 1; values below map to -1.

Input: In plain terms: is recorded protein stability index at least 2 for `Q8T` ?
Output: 1

Input: Would you say `S24A` shows protein stability index at minimum 2?
Output: -1

These entries and their values trace back to the supplement of paper PMC10567573.
